system-tested: NMDA receptor glycine site, rat cortical membranes (Rattus norvegicus, UniProt P35439)
Construct: well washed rat cortical membranes (200 μg)
method-description: [3H] MK-801 binding assay (MK-801 Glycine Site Binding Assay: Rat, Cortex)
cond: potentiation of [3H]MK-801 binding (5 nM), 50 μM glutamate, 15 min @25° C.
Description: […]
pEC50: −log10 of the molar value.

{"compound": "NC(=O)C(CO)N1CCCC12CNC2=O (stereo not shown)", "pEC50": 8.61}
